Please go through the items and note down their INHIBITION.
test system: Plasmodium berghei; experiment: Screen against P. berghei liver stage (PbLuc), transformed with Luciferase, at 10uM; format: functional, HepG2; conditions: tested at 10 uM
The campaign covered roughly 69,000 compounds. About 8,600 (12%) showed an effect of 50% or more. This is one part of a sample in which strong results are shown more often than they occur.
Give your result in % as a bare value.

Value of measured INHIBITION for the entry COc1ncc(-c2ccc(C(N)=O)cc2)c(OC)n1 : 9.41

Value of measured INHIBITION for the entry CCCc1nc(C(C)(C)NC(=O)C2CC(=O)N(C3CCCC3)C2)no1 (stereo unspecified) : -15.5

Value of measured INHIBITION for the entry COc1nc2ccn(CCNc3cc(C)ccn3)c(=O)c2cc1C#N : 58.3

Value of measured INHIBITION for the entry Cc1cccnc1CN1CCOC(Cc2cccc3ccccc23)C1 (stereo unspecified) : 42.1

Value of measured INHIBITION for the entry CC(=O)N1[C@H](CN(C)C)C[C@@H]2CN(C(=O)c3cccn3C)CC[C@@H]21 : -9.74

Value of measured INHIBITION for the entry COCCn1cnc2ccc(NC(=O)c3ccc(OC)cc3)cc2c1=O : -13.6

Value of measured INHIBITION for the entry N#Cc1cc2c(=O)n(CC(O)Cc3ccccc3)ccc2[nH]c1=O (stereo unspecified) : 25.9

Value of measured INHIBITION for the entry COc1nc2ccn(CCc3cc(O)nc(C)n3)c(=O)c2cc1C#N : 58.3

Value of measured INHIBITION for the entry COc1nc2ccn(CCc3cnccn3)c(=O)c2cc1C#N : 72.6

Value of measured INHIBITION for the entry COc1nc2ccn(CCc3scnc3C)c(=O)c2cc1C#N : 45.7

Value of measured INHIBITION for the entry CCc1nc(CCn2ccc3nc(OC)c(C#N)cc3c2=O)no1 : 32.3

###

system: Plasmodium berghei; assay: Screen against P. berghei liver stage (PbLuc), transformed with Luciferase, at 10uM; assay type: functional, HepG2; conditions: tested at 10 uM
The whole screen tested about 69,000 compounds, of which about 8,600 (12%) showed an effect of 50% or more. The entries come from a sample that favours strong results as a whole.
Please go through the items and note down their INHIBITION.
Give your result in % as a bare value.

Value of measured INHIBITION for the entry c1cnc(N2CCC3(CC2)CN(CC2CC2)c2ccccc23)nc1 : 83.2

Value of measured INHIBITION for the entry CN(Cc1cccs1)c1nc2c(cnn2C(C)(C)C)c(=O)[nH]1 : 53.5

Value of measured INHIBITION for the entry CN1CC(=O)N(c2cccc(F)c2)CC12CCN(Cc1cccnc1)C2 (stereo not drawn) : 1.58

Value of measured INHIBITION for the entry Cc1noc(C)c1CN1CCC2(CCN(Cc3cccc(F)c3)CC2)C1 : 60.2

Value of measured INHIBITION for the entry CCN(Cc1nc2c(cnn2C)c(=O)[nH]1)Cc1cccs1 : 44.6

Value of measured INHIBITION for the entry CN(Cc1cccc2cccnc12)C1CCS(=O)(=O)C1 (stereo not drawn) : 36

Value of measured INHIBITION for the entry Cc1ncc(CN(C)c2nc3c(cnn3C(C)(C)C)c(=O)[nH]2)s1 : 30.8

Value of measured INHIBITION for the entry OCCN1CC2(CCN(CC3CC3)CC2)c2ccccc21 : 26

Value of measured INHIBITION for the entry O=C(c1csc(-c2nnc[nH]2)n1)N1CCCCC1Cn1cccn1 (stereo not drawn) : 18.2

Value of measured INHIBITION for the entry Nc1nc(C2CCN(C(=O)c3cscn3)CC2)cs1 : 34.7

Value of measured INHIBITION for the entry CCS(=O)(=O)N1CCC2(CC1)CC(CC(=O)NC1CC1)c1ccccc12 (stereo not drawn) : -5.22

Value of measured INHIBITION for the entry CC(C(=O)N1CCCN(c2ccc(C#N)cc2)CC1)n1cccn1 (stereo not drawn) : 10

Value of measured INHIBITION for the entry CC(=O)N1CCC2(CCN(Cc3cccc(F)c3)CC2)CC1 : -12.1

Value of measured INHIBITION for the entry O=C(COC[C@H]1CC[C@H]2[C@H](CCN2c2ncccn2)O1)N1CCCC1 : 1.81

Value of measured INHIBITION for the entry Cc1noc(C)c1CN1CCO[C@H]2CN(Cc3cccc(F)c3)C[C@H]21 : 62.9

Value of measured INHIBITION for the entry Cc1ccsc1CN(C)Cc1nc2c(cnn2C)c(=O)[nH]1 : 26.3

Value of measured INHIBITION for the entry OC1(CNCCc2csc(-c3ncccn3)n2)CCNC1 (stereo not drawn) : 39.3

Value of measured INHIBITION for the entry CCOc1cccc(C(=O)N2C[C@@H]3CC[C@H]2CN(C(=O)C2CCC2)C3)c1 : 27.6

Value of measured INHIBITION for the entry CCN(Cc1c(C)nn(CC)c1C)S(=O)(=O)c1cnn(C)c1 : 11.8

Value of measured INHIBITION for the entry Cc1noc(C)c1CN1CCO[C@H]2CN(Cc3cccnc3)C[C@H]21 : 14.6

Value of measured INHIBITION for the entry O=C(c1ccc2c(c1)CCC2)N1CC[C@H](O)[C@]2(CCCO2)C1 : 32.3

Value of measured INHIBITION for the entry Cc1nnc(N2C[C@H](OCc3cccnc3)[C@H]3OCCC[C@H]32)s1 : 47.9

Value of measured INHIBITION for the entry CCN1C(=O)CCCC12CCCN(C(=O)c1occc1C)C2 (stereo not drawn) : 23.5

###

system: Plasmodium berghei; assay: Screen against P. berghei liver stage (PbLuc), transformed with Luciferase, at 10uM; type: functional, HepG2; conditions: tested at 10 uM
About 8,600 (12%) of roughly 69,000 compounds showed an effect of 50% or more. For the sample, strong results were picked, then their nearest neighbours and some compounds at random.
MEASURED_PROPERTY: INHIBITION (%)
Give your result in % as a bare value.

Value of measured INHIBITION for the entry CC(CNC(=O)Nc1cn[nH]c1)N1CCCC1 (configuration not stated) : -21.9

Value of measured INHIBITION for the entry O=C(c1c[nH]c(=O)cn1)N1C[C@H]2CC[C@@H](C1)N(Cc1ccccc1)C2 : 17.2

Value of measured INHIBITION for the entry O=C(c1cccc2ccnn12)N1CCC[C@H]1CN1CCCC1 : 19.8

Value of measured INHIBITION for the entry NS(=O)(=O)Cc1ccc(CNc2cncc(-n3cccn3)n2)cc1 : 11.6

Value of measured INHIBITION for the entry CCN(CC(=O)NC)C(=O)c1sc(Cc2ccccc2)nc1C : -16

Value of measured INHIBITION for the entry CC(C)N(Cc1ccccn1)S(=O)(=O)N1CCCC1c1ccco1 (configuration not stated) : 7.515

Value of measured INHIBITION for the entry COc1ccc2c(c1)CCCN2C(=O)c1cccc(N(C)C)c1 : 87.9

Value of measured INHIBITION for the entry CSc1ccc(CN(CCO)C(=O)CCNC(C)=O)cc1 : 18.4

Value of measured INHIBITION for the entry Cc1nc(Cc2ccccc2)nc2sc(C(=O)O)c(C)c12 : 53.1

Value of measured INHIBITION for the entry Cc1cc(N2CCN(Cc3ccnn3C)CC2)cc(C2CCCN2)n1 (configuration not stated) : 37.45

Value of measured INHIBITION for the entry COc1ccc2c(c1)CCCN2C(=O)CN1CCOC(C)C1 (configuration not stated) : 50.9

Value of measured INHIBITION for the entry NC(=O)c1cnn2c1NCC(CNC1(c3ccccc3)CCC1)C2 (configuration not stated) : 33.7

###

test system: Plasmodium berghei; test: Screen against P. berghei liver stage (PbLuc), transformed with Luciferase, at 10uM; type: functional, HepG2; conditions: tested at 10 uM
Screen size: about 69,000 compounds; about 8,600 (12%) showed an effect of 50% or more. This is one part of a sample in which strong results are shown more often than they occur.
Mark F for INHIBITION values under 40%, and T for everything at or above.

Data request: Kindly determine if INHIBITION recorded for COc1c(CNCc2cccc(CN(C)C)c2)c(C)nn1C is above or exactly 40%.
Data returned: F

Data request: Kindly determine if INHIBITION recorded for CN(C)c1ncc(CNC2CC(=O)N(CCc3cccc(Cl)c3)C2)s1 (stereo unspecified) is above or exactly 40%.
Data returned: T

Data request: Kindly determine if INHIBITION recorded for Cc1ncc(CNC2CC(=O)N(CCc3ccc(F)cc3)C2)n1C (stereo unspecified) is above or exactly 40%.
Data returned: F

Data request: Kindly determine if INHIBITION recorded for O=C1CC(NCc2ccncc2)CN1CCc1cccc(Cl)c1 (stereo unspecified) is above or exactly 40%.
Data returned: T

Data request: Kindly determine if INHIBITION recorded for Cc1nc(CNC2CC(=O)N(CCc3cccc(Cl)c3)C2)c[nH]1 (stereo unspecified) is above or exactly 40%.
Data returned: T

Data request: Kindly determine if INHIBITION recorded for CCc1ncc(CNC2CC(=O)N(CCc3cccc(Cl)c3)C2)cn1 (stereo unspecified) is above or exactly 40%.
Data returned: F

Measured values drawn from ChEMBL document CHEMBL4513216 for this set.
